Target: ferroportin (Homo sapiens, UniProt Q9NP59)
Assay: T47D cell-based ferroportin internalization assay in presence of mouse serum albumin (MSA)
Design: a human breast carcinoma adherent cell line which endogenously expresses ferroportin; host or cells: T47D
Details: T47D cells, 0.5% mouse serum albumin, 1 hr incubation
Positions of bridges follow the written chain, without caps; N, C: chain ends. Non-standard residues stand in square brackets, D forms with d. Residues, ends and D or L forms follow the SMILES beside them. Groups on a side chain read outwards from the residue. *: point of attachment. C18 diacid = O=C(O)CCCCCCCCCCCCCCCCC(=O)*; Dip = N[C@H](C(=O)O)C(c1ccccc1)c1ccccc1; β3hF = N[C@H](CC(=O)O)Cc1ccccc1; Isovaleryl = CC(C)CC(=O)*; AEEA = NCCOCCOCC(=O)O; Ahx = NCCCCCC(=O)O
assay metric: IC50

- CC(C)CC(=O)N[C@@H](CCC(=O)O)C(=O)N[C@H](C(=O)N[C@@H](Cc1c[nH]cn1)C(=O)N[C@H](C(=O)N1CCC[C@H]1C(=O)N[C@H]1CSSC[C@@H](C(=O)N[C@@H](CCCCNC(=O)COCCOCCNC(=O)COCCOCCNC(=O)CCCCCNC(=O)CCCCCCCCCCCCCCCCC(=O)O)C(=O)N[C@H](CC(=O)N[C@H](CCCCN)C(N)=O)Cc2ccccc2)NC1=O)C(c1ccccc1)c1ccccc1)[C@@H](C)O [Compd 22] (Isovaleryl-ETH[Dip]PCCK([AEEA-AEEA-Ahx-C18 diacid])[β3hF][dK]-NH2; disulfide 6-7): 10 to 100 nM

Alright, here's another compound for you.
Fill in: IC50 of CC[C@H](C)[C@@H]1NC(=O)[C@@H](NC(=O)[C@@H]2CCCN2C(=O)[C@@H](NC(=O)[C@H](Cc2c[nH]cn2)NC(=O)[C@@H](NC(=O)[C@H](CCC(=O)O)NC(=O)CC(C)C)[C@@H](C)O)C(c2ccccc2)c2ccccc2)CSSC[C@@H](C(N)=O)NC(=O)C[C@H](Cc2ccccc2)NC(=O)[C@H](CCCCNC(=O)COCCOCCNC(=O)COCCOCCNC(=O)CCCCCNC(=O)CCCCCCCCCCCCCCCCC(=O)O)NC1=O [Compd 23] (Isovaleryl-ETH[Dip]PCIK([AEEA-AEEA-Ahx-C18 diacid])[β3hF]C-NH2; disulfide 6-10) is ___
10 to 100 nM

====

// values below are reported pIC50
Biological target: ferroportin (Homo sapiens, UniProt Q9NP59)
Sequence (Q9NP59 1-571): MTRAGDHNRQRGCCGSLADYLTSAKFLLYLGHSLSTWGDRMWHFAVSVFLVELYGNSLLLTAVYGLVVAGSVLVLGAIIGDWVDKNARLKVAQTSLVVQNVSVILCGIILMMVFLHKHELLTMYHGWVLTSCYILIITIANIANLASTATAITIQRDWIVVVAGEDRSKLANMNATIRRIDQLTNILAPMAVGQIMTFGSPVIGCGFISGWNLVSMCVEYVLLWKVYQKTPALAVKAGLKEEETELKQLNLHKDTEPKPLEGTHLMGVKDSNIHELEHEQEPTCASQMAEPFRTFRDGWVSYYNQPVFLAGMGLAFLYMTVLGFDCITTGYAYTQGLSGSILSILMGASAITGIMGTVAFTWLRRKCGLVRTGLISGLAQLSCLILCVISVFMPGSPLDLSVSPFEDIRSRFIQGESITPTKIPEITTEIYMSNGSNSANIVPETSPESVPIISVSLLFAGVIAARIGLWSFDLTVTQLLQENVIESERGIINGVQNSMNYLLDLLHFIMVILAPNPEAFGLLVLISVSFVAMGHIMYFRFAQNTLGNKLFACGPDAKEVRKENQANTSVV
Test: T47D cell-based ferroportin internalization assay in presence of mouse serum albumin (MSA)
Parameters: a human breast carcinoma adherent cell line which endogenously expresses ferroportin; host or cells: T47D
Conditions: Table 6E; T47D internalization assay with MSA
pIC50: −log10 of the molar value. Starred links: 1 amine or outer side, 2 acyl side, 3 side chain; linkers in the order of their positions; H or OH if unused. Positions of bridges follow the written chain, without caps; N, C: chain ends. Non-standard residues stand in square brackets, D forms with d. Residues, ends and D or L forms follow the SMILES beside them. Groups on a side chain read outwards from the residue. ξ: configuration not given here. *: point of attachment. X1 = C[N+](C)(CCNC(=O)CCCCCCCCCCCCCCCCC(=O)O)CC(=O)*; Bip = N[C@@H](Cc1ccc(-c2ccccc2)cc1)C(=O)O; Dip = N[C@H](C(=O)O)C(c1ccccc1)c1ccccc1; Ethylenediamine = C(CN[*:2])N[*:1]; Palmitoyl = CCCCCCCCCCCCCCCC(=O)*; NMeK = CN[C@@H](CCCCN)C(=O)O; Isovaleryl = CC(C)CC(=O)*; Ahx = NCCCCCC(=O)O; ξC = NC(CS)C(=O)O

- CCCCCCCCCCCCCCCC(=O)NCCCCCC(=O)NCCCC[C@@H](C(=O)N[C@H](C(=O)NCCN)C(c1ccccc1)c1ccccc1)N(C)C(=O)C1CSSC[C@H](NC(=O)[C@@H]2CCCN2C(=O)[C@@H](NC(=O)[C@H](Cc2c[nH]cn2)NC(=O)[C@@H](NC(=O)[C@H](CCC(=O)O)NC(=O)CC(C)C)[C@@H](C)O)C(c2ccccc2)c2ccccc2)C(=O)N1 (some centres unmarked) [compound 164] (Isovaleryl-ETH[Dip]PC[ξC][NMeK]([Ahx-Palmitoyl])[Dip]-Ethylenediamine; disulfide 6-7): 8.00 to 9.00

Fill in: pIC50 of CC(C)CC(=O)N[C@@H](CCC(=O)O)C(=O)N[C@H](C(=O)N[C@@H](Cc1c[nH]cn1)C(=O)N[C@H](C(=O)N1CCC[C@H]1C(=O)N[C@H]1CSSC[C@@H](C(=O)N(C)[C@@H](CCCCNC(=O)CCCCCNC(=O)C[N+](C)(C)CCNC(=O)CCCCCCCCCCCCCCCCC(=O)O)C(=O)N[C@@H](Cc2ccc(-c3ccccc3)cc2)C(=O)N[C@H](CCCCN)C(N)=O)NC1=O)C(c1ccccc1)c1ccccc1)[C@@H](C)O [compound 183] (Isovaleryl-ETH[Dip]PCC[NMeK]([Ahx-X1])[Bip][dK]-NH2; disulfide 6-7) is ___
7.00 to 8.00

====

Biological target: ferroportin (Homo sapiens, UniProt Q9NP59)
Assay: T47D cell-based ferroportin internalization assay in presence of mouse serum albumin (MSA)
Parameters: a human breast carcinoma adherent cell line which endogenously expresses ferroportin; host or cells: T47D
Settings: Table 6E; T47D internalization assay with MSA
Positions of bridges follow the written chain, without caps; N, C: chain ends. Non-standard residues stand in square brackets, D forms with d. Residues, ends and D or L forms follow the SMILES beside them. Groups on a side chain read outwards from the residue. *: point of attachment. X1 = C[N+](C)(CCNC(=O)CCCCCCCCCCCCCCCCC(=O)O)CC(=O)*; X5 = CCCCCCCCCCCCCCCC(=O)NCC[N+](C)(C)CC(=O)*; Dip = N[C@H](C(=O)O)C(c1ccccc1)c1ccccc1; NMeT = CN[C@H](C(=O)O)[C@@H](C)O; NMeE = CN[C@@H](CCC(=O)O)C(=O)O; β3hF = N[C@H](CC(=O)O)Cc1ccccc1; NMeK = CN[C@@H](CCCCN)C(=O)O; Isovaleryl = CC(C)CC(=O)*; AEEA = NCCOCCOCC(=O)O; Ahx = NCCCCCC(=O)O
assay metric: IC50

• CC(C)CC(=O)N[C@@H](CCC(=O)O)C(=O)N[C@H](C(=O)N[C@@H](Cc1cnc[nH]1)C(=O)N[C@H](C(=O)N1CCC[C@H]1C(=O)N[C@H]1CSSC[C@@H](C(=O)N(C)[C@@H](CCCCNC(=O)COCCOCCNC(=O)COCCOCCNC(=O)C[N+](C)(C)CCNC(=O)CCCCCCCCCCCCCCCCC(=O)O)C(=O)N[C@H](CC(=O)N[C@H](CCCCN)C(N)=O)Cc2ccccc2)NC1=O)C(c1ccccc1)c1ccccc1)[C@@H](C)O [compound 159] (Isovaleryl-ETH[Dip]PCC[NMeK]([AEEA-AEEA-X1])[β3hF][dK]-NH2; disulfide 6-7) = 10 to 100 nM

Fill in: IC50 of CC(C)CC(=O)N[C@@H](CCC(=O)O)C(=O)N(C)[C@H](C(=O)N[C@@H](Cc1c[nH]cn1)C(=O)N[C@H](C(=O)N1CCC[C@H]1C(=O)N[C@H]1CSSC[C@@H](C(=O)N(C)[C@@H](CCCCNC(=O)CCCCCNC(=O)C[N+](C)(C)CCNC(=O)CCCCCCCCCCCCCCCCC(=O)O)C(=O)N[C@H](C(N)=O)C(c2ccccc2)c2ccccc2)NC1=O)C(c1ccccc1)c1ccccc1)[C@@H](C)O [compound 189] (Isovaleryl-E[NMeT]H[Dip]PCC[NMeK]([Ahx-X1])[Dip]-NH2; disulfide 6-7) is ___
100 to 500 nM

Fill in: IC50 of CCCCCCCCCCCCCCCC(=O)NCC[N+](C)(C)CC(=O)NCCCCCC(=O)NCCCC[C@@H](C(=O)N[C@H](C(=O)N[C@H](CCCCN)C(N)=O)C(c1ccccc1)c1ccccc1)N(C)C(=O)[C@@H]1CSSC[C@H](NC(=O)[C@@H]2CCCN2C(=O)[C@@H](NC(=O)[C@H](Cc2cnc[nH]2)NC(=O)[C@@H](NC(=O)[C@H](CCC(=O)O)N(C)C(=O)CC(C)C)[C@@H](C)O)C(c2ccccc2)c2ccccc2)C(=O)N1 [compound 167] (Isovaleryl-[NMeE]TH[Dip]PCC[NMeK]([Ahx-X5])[Dip][dK]-NH2; disulfide 6-7) is ___
1 to 10 nM

Fill in: IC50 of COC(=O)CC[C@H](NC(=O)CC(C)C)C(=O)N(C)[C@H](C(=O)N[C@@H](Cc1c[nH]cn1)C(=O)N[C@H](C(=O)N1CCC[C@H]1C(=O)N[C@H]1CSSC[C@@H](C(=O)N(C)[C@@H](CCCCNC(=O)C[N+](C)(C)CCNC(=O)CCCCCCCCCCCCCCCCC(=O)O)C(=O)N[C@H](C(N)=O)C(c2ccccc2)c2ccccc2)NC1=O)C(c1ccccc1)c1ccccc1)[C@@H](C)O [compound 186] (Isovaleryl-E(OMe)[NMeT]H[Dip]PCC[NMeK](X1)[Dip]-NH2; disulfide 6-7) is ___
100 to 500 nM
